Tested on: STAT1 (phosphorylated at Tyr701) in NCI-H1373 cells
ASSAY_PROCEDURE: Phospho-STAT1 (Tyr701) LANCE Ultra TR-FRET detection assay
Assay type: cell-based
MEASUREMENT_SETUP: Homo sapiens, NCI-H1373, 48 h, induction of pSTAT1 in NCI-H1373 cells, 48 hours incubation; normalized to 10 uM positive control and DMSO; 4-parameter fit; read-out: NH1373 pSTAT1 EC50
Label scheme, based on EC50: I: < 2 nM; II: ≥ 2 nM and < 6 nM; III: ≥ 6 nM

Ask | The entry to classify is O=c1[nH]ncc(N[C@H]2CCC[C@@H](Cn3ccc4cc(-c5ncc(OCC(F)F)cn5)c(F)cc4c3=O)C2)c1C(F)(F)F [Example 14] ; which class holds it?
Reply | III

Ask | Input Cc1nc(-c2cc3ccn(C[C@@H]4CCC[C@H](Nc5cn[nH]c(=O)c5C(F)(F)F)C4)c(=O)c3cc2F)ncc1C(F)(F)F [Example 6] ; output its category
Reply | II
